- Experiment: SK-BR-3 cell growth inhibitors, pilot screen, 24 h, human (AID 572);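 note: compound exposure lasted between 18 and 24 h rather than exactly 24 h; 100% = carrier-treated control wells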
- Measurement setup: SK-BR-3 viability, CellTiter-Glo luminescence, at 10 µM, hits give low values
Parameter measured: viability (%)
Report only the number, with the unit % understood.

(Q) Please look up its viability: O=C(NCCC1=CCCCC1)c1cc2c(s1)CS(=O)(=O)C2
(A) 114

(Q) Thanks! And Cc1ccc(S(=O)(=O)N2CCOCC2)cc1C(=O)OCC(=O)N1CCc2ccccc2C1 ?
(A) 82.5

(Q) Thanks! And CCOC(=O)N1CCN(C(=O)c2n[nH]c(=O)c3ccccc23)CC1 ?
(A) 85

(Q) Thanks! And COc1ccccc1N1CC(O)=C(c2nc3ccccc3c(=O)[nH]2)C1=N ?
(A) 116

(Q) Thanks! And O=C(COC(=O)c1ccc(S(=O)(=O)Nc2ccccc2)cc1)NCCN1C(=O)CSC1=O ?
(A) 107

(Q) Thanks! And Cc1cccc(Nc2nc(N)nc(CN3CCC(C(N)=O)CC3)n2)c1C ?
(A) 89

(Q) Thanks! And Cc1ccc(/C=c2\sc3nc(-c4ccccc4Br)nn3c2=O)o1 ?
(A) 89

(Q) Thanks! And COc1ccc(NC2c3ncccc3C(=O)N2Cc2ccccc2)c(OC)c1 (stereo not drawn) ?
(A) 101

---

Quick list: viability per entry.
- Experiment: SK-BR-3 cell growth inhibitors, pilot screen, 24 h, human (AID 572);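 note: compound exposure lasted between 18 and 24 h rather than exactly 24 h; 100% = carrier-treated control wells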
- Measurement setup: SK-BR-3 viability, CellTiter-Glo luminescence, at 10 µM, hits give low values
Report only the number, with the unit % understood.

Compound	Unit label	Value
CC1(C)CC(=O)C(CC2=C(O)CC(C)(C)CC2=O)=C(O)C1	%	95
COC(=O)Nc1ccc(S(=O)(=O)N2CCN(c3ccc(F)cc3)CC2)cc1	%	96.5
COc1cc(NC(=O)Cc2cccs2)ccc1-n1cnnn1	%	97
O=C(CSc1nnnn1C1CCCC1)Nc1cccc(NC(=O)c2ccco2)c1	%	91.5
O=C(NCN1CCCCC1)c1cnccn1	%	95.5
COC(=O)C1CCN(C(=O)c2sc3nc(-c4ccc(F)cc4)cn3c2C)CC1	%	76.5
CSc1cccc(NC(=O)C2CCCN2S(=O)(=O)c2ccc3c(c2)CCC(=O)N3)c1 (stereo not given)	%	93
Cc1ccc(S(=O)(=O)N2CCN(C(=O)CN3C(=O)NC4(CCOc5ccccc54)C3=O)CC2)cc1 (stereo not given)	%	98.5

(Q) Please look up its viability: Nc1nnc(-c2cn(-c3ccccc3)nc2-c2ccccc2)o1
(A) 73

(Q) Thanks! And O=C(Nc1ccccc1C(=O)NCC1CCCO1)c1ccco1 (stereo not given) ?
(A) 110

(Q) Thanks! And CC(C)=CCCC(C)N(C=O)C(C)CCC=C(C)C (stereo not given) ?
(A) 84.5

(Q) Thanks! And CC(=O)C1=C(C)NC(SCSc2ccccc2)=C(C#N)C1c1cccnc1 (stereo not given) ?
(A) 80

(Q) Thanks! And Cn1nc(C(=O)N2CCOCC2)c2ccccc2c1=O ?
(A) 93

(Q) Thanks! And CC(=O)Nc1ccc(OC(=O)c2cccs2)cc1 ?
(A) 101

(Q) Thanks! And CC1CCN(C(=O)CCNS(=O)(=O)c2ccccc2)CC1 ?
(A) 110

---

- Experiment: reversal of MRP1-mediated doxorubicin resistance, pilot screen, H69AR cells, doxorubicin co-treatment (AID 601)
- Measurement setup: H69AR cells + 2 uM doxorubicin, CellTiter-Glo, 72 h; at 10 µM; hits give high values
Parameter measured: differential viability (reversal) (%)
Report only the number, with the unit % understood.

Compound	Value
CCN(CC)S(=O)(=O)c1ccc(NC(=O)CN(c2cccc(F)c2)S(C)(=O)=O)cc1	-3.88
O=C(c1ccc(-c2ccccc2)cc1)N1CCN(c2ncccn2)CC1	12.7
Cc1cccc2sc(NC(=O)CN(C)S(=O)(=O)c3cccs3)nc12	-0.425
NCCN1CCN(CCN)CC1	12.2
O=C(CN1CCN(C(=O)c2ccccc2)CC1)Nc1ncc(Br)cc1Br	-6.92

(Q) Please look up its differential viability (reversal): CN(Cc1cccs1)c1ncnc2sccc12
(A) -0.54

(Q) Thanks! And CC1Cc2ccccc2N1S(=O)(=O)c1cccc(C(=O)OCC(=O)NC2CCS(=O)(=O)C2)c1 (stereo not drawn) ?
(A) 12.3

(Q) Thanks! And COc1ccc(C2=NO[C@@H]3C(=O)N(c4cccc(C)c4C)C(=O)[C@H]23)cc1OC ?
(A) -7.95

(Q) Thanks! And COc1ccc(CNC(=O)CCc2nc(-c3ccccc3F)no2)c(OC)c1 ?
(A) 3.65

(Q) Thanks! And COc1ccc(/C(O)=C2/C(=O)C(=O)N(CCCN(C)C)C2c2ccco2)cc1Cl (stereo not drawn) ?
(A) 7.21

(Q) Thanks! And Cc1cc2ncc(C(=O)Nc3ccccc3)c(C)n2n1 ?
(A) 12.7
